test: Pharmacokinetics in rats after oral administration; format: in vivo, SD rats; conditions: male, SD, rat, 20 mg/kg, plasma

- record-smiles: "C=CC(=O)Nc1cc(Nc2nccc(-n3ccc4nc(Cl)ccc43)n2)c(OC)cc1N(C)CCN(C)C"
  half-life: "6.1 h"
- record-smiles: "C=CC(=O)Nc1cc(Nc2nccc(-n3c(=O)n(CC=C(C)C)c4ccccc43)n2)c(OC)cc1N(C)CCN(C)C"
  half-life: "6.8 h"
- record-smiles: "C=CC(=O)Nc1cc(Nc2nccc(-n3c(=O)n(C)c4cc(F)ccc43)n2)c(OC)cc1N(C)CCN(C)C"
  half-life: "3.1 h"
- record-smiles: "C=CC(=O)Nc1cc(Nc2nccc(-n3ccc4nc(OC)ccc43)n2)c(OC)cc1N(C)CCN(C)C"
  half-life: "3.7 h"
- record-smiles: "C=CC(=O)Nc1cc(Nc2nccc(-n3c(=O)n(C(C)C)c4cc(F)ccc43)n2)c(OC)cc1N(C)CCN(C)C"
  half-life: "3 h"

* * *

molecular target: EGFR T790M/L858R (Homo sapiens, UniProt P00533, L858R/T790M); assay: Mutant EGFR T790M/L858R activity inhibition assay (Caliper mobility shift); details: read-out: enzyme activity inhibition (IC50) EGFR T790M/L858R
Sequence (P00533 25-1210 T790M/L858R): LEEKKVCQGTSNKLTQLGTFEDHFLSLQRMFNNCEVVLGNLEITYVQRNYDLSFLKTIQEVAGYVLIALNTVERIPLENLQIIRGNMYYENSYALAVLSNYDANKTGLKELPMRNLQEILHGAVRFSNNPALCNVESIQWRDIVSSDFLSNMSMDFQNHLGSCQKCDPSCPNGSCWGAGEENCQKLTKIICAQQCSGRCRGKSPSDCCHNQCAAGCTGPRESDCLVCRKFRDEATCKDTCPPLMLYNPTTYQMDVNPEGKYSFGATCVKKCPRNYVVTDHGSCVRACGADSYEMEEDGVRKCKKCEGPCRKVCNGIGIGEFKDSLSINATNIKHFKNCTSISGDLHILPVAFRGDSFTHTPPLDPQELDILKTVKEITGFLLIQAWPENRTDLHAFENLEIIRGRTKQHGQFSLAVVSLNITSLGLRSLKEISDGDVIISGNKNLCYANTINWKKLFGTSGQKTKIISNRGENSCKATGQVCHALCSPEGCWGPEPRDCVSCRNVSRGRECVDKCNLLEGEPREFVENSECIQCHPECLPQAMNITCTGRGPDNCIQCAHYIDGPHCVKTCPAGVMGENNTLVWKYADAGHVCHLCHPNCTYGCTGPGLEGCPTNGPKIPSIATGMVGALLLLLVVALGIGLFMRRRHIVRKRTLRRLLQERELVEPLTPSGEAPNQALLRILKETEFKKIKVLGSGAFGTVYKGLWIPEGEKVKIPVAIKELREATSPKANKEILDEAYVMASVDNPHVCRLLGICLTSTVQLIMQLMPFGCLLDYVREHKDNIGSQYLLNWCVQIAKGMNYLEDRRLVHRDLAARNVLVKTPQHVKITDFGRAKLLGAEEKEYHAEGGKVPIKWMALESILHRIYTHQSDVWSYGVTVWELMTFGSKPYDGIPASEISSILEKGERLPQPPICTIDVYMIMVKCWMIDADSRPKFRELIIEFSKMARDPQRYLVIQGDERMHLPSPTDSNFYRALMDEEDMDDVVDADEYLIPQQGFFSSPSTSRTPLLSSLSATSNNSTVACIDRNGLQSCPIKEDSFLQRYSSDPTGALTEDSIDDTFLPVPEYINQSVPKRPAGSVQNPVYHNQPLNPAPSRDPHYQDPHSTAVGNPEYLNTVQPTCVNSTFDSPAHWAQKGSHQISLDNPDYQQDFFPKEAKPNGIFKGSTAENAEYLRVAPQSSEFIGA
Recorded measurements of IC50, one per entry
measured-property: IC50

- record-smiles: "C=CC(=O)Nc1cc(Nc2nccc(-n3ccc4cc(C#N)ccc43)n2)c(OC)cc1N(C)CCN(C)C"
  obs-value: "< 1 nM"
- record-smiles: "C=CC(=O)Nc1cc(Nc2nccc(-n3c(=O)n(C)c4ccccc43)n2)c(OCCOC)cc1N(C)CCN(C)C"
  obs-value: "1 to 10 nM"
- record-smiles: "C=CC(=O)Nc1cc(Nc2ncc(NC)c(-n3ccc4ccccc43)n2)c(OC)cc1N(C)CCN(C)C"
  obs-value: "1 to 10 nM"
- record-smiles: "C=CC(=O)Nc1cc(Nc2nccc(-n3ccc4ccccc43)n2)c(OC)cc1N(C)CCN1CCOCC1"
  obs-value: "1 to 10 nM"
- record-smiles: "C=CC(=O)Nc1cc(Nc2nccc(-n3c(=O)n(C4CC4)c4cc(C#N)ccc43)n2)c(OC)cc1N(C)CCN(C)C"
  obs-value: "< 1 nM"
- record-smiles: "C=CC(=O)Nc1cc(Nc2ncc(OC)c(-n3ccc4ccccc43)n2)c(OC)cc1N(C)CCN(C)C"
  obs-value: "1 to 10 nM"
- record-smiles: "C=CC(=O)Nc1cc(Nc2nccc(-n3c(=O)n(C)c4cc(F)ccc43)n2)c(OC)cc1N(C)CCN(C)C"
  obs-value: "< 1 nM"
- record-smiles: "C=CC(=O)Nc1cc(Nc2nccc(-n3ccc4ccccc43)n2)c(OC)cc1N(C)CCN1CCCCC1"
  obs-value: "1 to 10 nM"
- record-smiles: "C=CC(=O)Nc1cc(Nc2nccc(-n3c(=O)n(C4CC4)c4cc(F)ccc43)n2)c(OC)cc1N(C)CCN(C)C"
  obs-value: "< 1 nM"
- record-smiles: "C=CC(=O)Nc1cc(Nc2nccc(-n3ccc4cc(OCCO)ccc43)n2)c(OC)cc1N(C)CCN(C)C"
  obs-value: "< 1 nM"
- record-smiles: "C=CC(=O)Nc1cc(Nc2ncc(C)c(-n3ccc4ccccc43)n2)c(OC)cc1N(C)CCN(C)C"
  obs-value: "< 1 nM"
- record-smiles: "C=CC(=O)Nc1cc(Nc2ncc(OC)c(-n3c(=O)n(C)c4ccccc43)n2)c(OC)cc1N(C)CCN(C)C"
  obs-value: "1 to 10 nM"
- record-smiles: "C=CC(=O)Nc1cc(Nc2nccc(-n3ccc4cc(CO)ccc43)n2)c(OC)cc1N(C)CCN(C)C"
  obs-value: "< 1 nM"
- record-smiles: "CC/C=C/C(=O)Nc1cc(Nc2nccc(-n3ccc4ccccc43)n2)c(OC)cc1N(C)CCN(C)C"
  obs-value: "50 to 100 nM"
- record-smiles: "C=CC(=O)Nc1cc(Nc2nccc(-n3ccc4ccccc43)n2)c(OC)cc1N1CCN(C)CC1"
  obs-value: "10 to 50 nM"
